# assay comment: protein stability index of a GFP-peptide fusion (yeast GPS) (PSI 1-4); higher = more stable; sorted into four equal gates, so the index is relative within each strain
# test conditions: pdr5∆
# protein stability index per entry

- entry sequence: "VEKGTPLGKILLKGDNI [SME1]"
  protein stability index: 3.43

If you can, please state the reported protein stability index value of MTVTKVSLPEGSFKRVK [BRR2] . 2.72

Consider next the sequence RRAAYGVVRYVMESGAK [RPS3] in the same way. 1.83

Then this sequence: LEALRQNYRLDGRSFDQ [RRP45] 1.97

Try this sequence next: KDEEIEKLLQQDREITN [MED8] 3.12

Same thing, different sequence: DFHFSTDRITRLFIKPG [BRN1] 2.6

And then GRRISENGQRDLDRIAA [RPS19A] , what is it? 3.42

And TNVLNFIKLQKIDIIEL [FAS1] ? 1.94

Same question, IGQLIGEVMKELSEEKY [RPT4] this time 3.42

How about this sequence: NDPAREKFSSFIESIVV [SNF12] 2.8

src = the supplement of paper PMC9732359
